Tested on: K-562 leukemia
test_summary: NCI tumour cell line growth inhibition, 48 h
observed_property: TGI

CC1CCC2C(C(=O)O[C@H]3C4C=CO[C@@H](OC5OC(CO)C(O)C(O)C5O)C4[C@@]4(CO)O[C@@H]34)=CO[C@@H](OC3OC(CO)C(O)C(O)C3O)C12 (stereo partly drawn)    > 10 µM

// input: 5 compounds below; output: TGI for each
1. CCCCCCCCCCCCNC(=S)OCCCC
2. COc1ccc2c(c1)C1Oc3ccccc3CC1CO2 (stereo not drawn)
3. CN(C)Cc1c[nH]c2nc[nH]c(=O)c12
4. Cc1ccccc1-c1cc(=O)c2cc(C)c(C)c(C(=O)O)c2o1
5. COc1cccc(/C=N/[N+](C)(C)C)c1O

["> 100 µM", "> 100 µM", "44.4 µM", "> 100 µM", "> 10 µM"]

// input: 2 compounds below; output: TGI for each
1. CCOC(=O)c1ccc(N[C@@H]2c3cc4c(cc3C(c3cc(OC)c(O)c(OC)c3)[C@H]3C(=O)OCC32)OCO4)cc1 (stereo partly drawn)
2. O=c1oc2cc(O)ccc2cc1-c1nc2ccccc2o1

1: 27.2 µM; 2: > 100 µM

----------
Give TGI for every item shown.
Test system: CAKI-1 renal
test_summary: NCI tumour cell line growth inhibition, 48 h

Solved entries (count: 4):
COc1ccc(C2=NC(CO)[C@H](c3ccccc3)O2)cc1OC (stereo not given in full)    > 100 µM
CC(=O)O[C@H]1[C@@H](N2CCCCC2)C[C@H]2[C@@H]3CC=C4C[C@@H](N5CCCC5)CC[C@]4(C)[C@H]3CC[C@@]21C    > 100 µM
N#C/C(=C\c1ccccn1)c1nc2ccccc2o1    > 100 µM
c1ccc([P+](Cc2ccc(C[P+](c3ccccc3)(c3ccccc3)c3ccccc3)s2)(c2ccccc2)c2ccccc2)cc1    > 100 µM

Please look at the following molecule next.
Recorded TGI for COc1ccccc1NC(=S)Nc1ccccn1 , please? > 100 µM

----------
System: SK-MEL-5 melanoma
test_summary: NCI tumour cell line growth inhibition, 48 h
Give TGI for every item shown.

Solved entries (count: 3):
CCOC(=O)C1Cc2ccc(C)cc2C1=O (centres undefined)    > 100 µM
O=C1Nc2ccccc2C1(O)Cc1ccccn1 (centres undefined)    > 100 µM
CCCCCCCCCCCC(=O)OCC(O)CO (centres undefined)    > 100 µM

Recorded TGI for CC(=O)OC1CCC2(C)C(=CCC3C2CCC2(C)C3CC3OC4(CCC(C)CN4)C(C)C32)C1 (centres undefined) , please? > 100 µM

----------
Tested on: NCI-H23 lung
test_summary: NCI tumour cell line growth inhibition, 48 h
Give TGI for every item shown.

Solved entries (count: 2):
CC1=NN(c2nc(N)nc(CCl)n2)C(C)(C)C1    28.6 µM
COC(=O)N1C=CC2=C(C)C3Nc4ccccc4C3C(C)=C2C1 (stereo not given)    > 100 µM

// input: 4 compounds below; output: TGI for each
1. CC12CC(Br)(Br)C(=O)C3C1CCCC32
2. COc1ccc(-c2c(C#N)c(N)nc(Sc3ccccc3N)c2C#N)cc1
3. CC1=C(C(=O)Nc2cc(F)c(F)cc2F)C(c2ccc(N(C)C)cc2)C(C(=O)Nc2cc(F)c(F)cc2F)=C(C)N1
4. COc1cc(CNc2ccc(C)cc2)cc(OC)c1OC

1: 16.3 µM; 2: > 100 µM; 3: > 85.1 µM; 4: 3.08 µM
